- Test system: 429239-143-T-J1-PDC complex spheroid viability
- test-details: Anticancer human tumor 429239-143-T-J1-PDC patient-derived small cell lung carcinoma cell line growth inhibition [POLQ]
- condition-details: second compound 0.316 µM; first compound 0.0316 µM; stronger effect = lower value
measured-attribute: viability, T/C (%)
Give just the number in %; leave the unit off.

Indicate its recorded viability, T/C; the compound in question is COc1ccc([C@@H](O)c2cc(-c3ncnc4cc(N5CCOCC5)ccc34)c(F)cc2Cl)nn1 + Cc1cccc(N(C)C(=O)C2C(O)CCN2c2nc(C)cc(C(F)(F)F)c2C#N)c1 105

Please give measured viability, T/C of the following entry: O=C(c1cc(Cc2n[nH]c(=O)c3ccccc23)ccc1F)N1CCN(C(=O)C2CC2)CC1 + Nc1ccc(C#CCN(C(=O)Cc2ncc(C(F)(F)F)cc2C(F)(F)F)c2ccc(F)cc2)nn1 104

Give the measured viability, T/C for C=CCn1c(=O)c2cnc(Nc3ccc(N4CCN(C)CC4)cc3)nc2n1-c1cccc(C(C)(C)O)n1 + Nc1ccc(C#CCN(C(=O)Cc2ncc(C(F)(F)F)cc2C(F)(F)F)c2ccc(F)cc2)nn1 108

Please indicate viability, T/C recorded for C=CC(=O)N1CCN(c2nc(=O)n(-c3c(C)ccnc3C(C)C)c3nc(-c4c(O)cccc4F)c(F)cc23)C(C)C1 (stereo not given) + Nc1ccc(C#CCN(C(=O)Cc2ncc(C(F)(F)F)cc2C(F)(F)F)c2ccc(F)cc2)nn1 108

Name the recorded viability, T/C of the compound listed here: O=C(c1cc(Cc2n[nH]c(=O)c3ccccc23)ccc1F)N1CCN(C(=O)C2CC2)CC1 + Cc1cccc(N(C)C(=O)C2C(O)CCN2c2nc(C)cc(C(F)(F)F)c2C#N)c1 94.2

Answer with the recorded viability, T/C for the compound listed here: CC1COCCN1c1cc(-c2ccnn2C)c2ccnc(-c3ccn[nH]3)c2n1 (stereo not given) + COC1C(OC(N)=O)C(O)C(Oc2ccc3c(O)c(NC(=O)c4ccc(O)c(CC=C(C)C)c4)c(=O)oc3c2C)OC1(C)C 75.5

Look up and report measured viability, T/C for this entry: CC[C@@]1(O)C(=O)OCc2c1cc1n(c2=O)Cc2cc3c(CN(C)C)c(O)ccc3nc2-1 + COC1C(OC(N)=O)C(O)C(Oc2ccc3c(O)c(NC(=O)c4ccc(O)c(CC=C(C)C)c4)c(=O)oc3c2C)OC1(C)C 20.4

Using the record for CC1COCCN1c1cc(C2(S(C)(=N)=O)CC2)nc(-c2ccnc3[nH]ccc23)n1 (stereo not given) + Cc1cccc(N(C)C(=O)C2C(O)CCN2c2nc(C)cc(C(F)(F)F)c2C#N)c1 , state its measured viability, T/C. 101

Quick one: give measured viability, T/C for COc1cc(C2c3cc4c(cc3C(OC3OC5COC(C)OC5C(O)C3O)C3COC(=O)C23)OCO4)cc(OC)c1O (stereo not given) + COC1C(OC(N)=O)C(O)C(Oc2ccc3c(O)c(NC(=O)c4ccc(O)c(CC=C(C)C)c4)c(=O)oc3c2C)OC1(C)C 88.1

For COc1cc2cc(C(=O)CCC(=O)O)sc2cc1OC + Cc1cccc(N(C)C(=O)C2C(O)CCN2c2nc(C)cc(C(F)(F)F)c2C#N)c1 , write its viability, T/C. 109

----------
Exercise: for every item that follows, state its recorded viability, T/C.
- Test system: 429239-143-T-J1-PDC complex spheroid viability
- test-details: Anticancer human tumor 429239-143-T-J1-PDC cell line growth inhibition [POLQ];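 also: luminescence signal used as surrogate measure of viable cells; spheroids exposed to compounds for seven days before readout; 100% = DMSO vehicle control viability as luminescence relative to vehicle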
- condition-details: second compound 0.316 µM; first compound 0.0316 µM; stronger effect = lower value
Give the value, in units of %, as a plain number.

Please give the documented viability, T/C of CCc1c2c(nc3ccc(O)cc13)-c1cc3c(c(=O)n1C2)COC(=O)[C@]3(O)CC + COC1C(OC(N)=O)C(O)C(Oc2ccc3c(O)c(NC(=O)c4ccc(O)c(CC=C(C)C)c4)c(=O)oc3c2C)OC1(C)C 17.3

Please give the documented viability, T/C of CC1COCCN1c1cc(-c2ccnn2C)c2ccnc(-c3ccn[nH]3)c2n1 (stereo not drawn) + Cc1cccc(N(C)C(=O)C2C(O)CCN2c2nc(C)cc(C(F)(F)F)c2C#N)c1 82.1

Give me measured viability, T/C, please, for this compound: CCc1cc2c(N3CCc4c(cc(Cn5ccnc5)cc4-c4cn(C)nc4C(F)(F)F)C3=O)ccnc2c(OC)n1 + Cc1cccc(N(C)C(=O)C2C(O)CCN2c2nc(C)cc(C(F)(F)F)c2C#N)c1 116
